- tested.on: GHSR1a (Homo sapiens, UniProt Q92847)
- Sequence (Q92847 whole entry): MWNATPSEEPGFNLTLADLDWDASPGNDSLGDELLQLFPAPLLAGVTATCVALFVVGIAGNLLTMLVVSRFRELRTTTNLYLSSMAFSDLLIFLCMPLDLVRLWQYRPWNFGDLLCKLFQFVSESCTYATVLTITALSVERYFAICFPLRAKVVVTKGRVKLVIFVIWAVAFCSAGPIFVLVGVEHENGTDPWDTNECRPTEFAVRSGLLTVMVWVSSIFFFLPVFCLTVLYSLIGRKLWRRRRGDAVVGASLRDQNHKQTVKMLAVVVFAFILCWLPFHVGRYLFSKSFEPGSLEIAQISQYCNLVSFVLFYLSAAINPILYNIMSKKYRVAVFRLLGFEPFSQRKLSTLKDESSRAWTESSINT
- assay.text: Calcium FLIPR assay, GHSR-1a antagonism (reduction of ghrelin response)
- study.conditions: HEK293/GHSR1a cells, ghrelin 10 nM
readout: IC50 (nM)

See these solved cases before continuing.
{"columns": ["compound", "tested.on", "unit.abbreviation", "result.number"],
 "data": [
  ["COc1cncc(-c2ccc(C(C)NC(=O)N(C)C3CCN(C)CC3)c(Cl)c2Cl)n1 (centres unmarked) [Compound H0738]", "GHSR1a (Homo sapiens, UniProt Q92847)", "nM", 696],
  ["CC(NC(=O)N(C)C1CCN(C)CC1)c1ccc(-c2cnc(N3CCCC3)nc2)c(Cl)c1Cl (centres unmarked) [Compound H0813]", "GHSR1a (Homo sapiens, UniProt Q92847)", "nM", 644],
  ["CC(NC(=O)N(C)C1CCN(C)CC1)c1ccc(-c2cccc3[nH]ncc23)c(Cl)c1Cl (centres unmarked) [Compound H0513]", "GHSR1a (Homo sapiens, UniProt Q92847)", "nM", 544],
  ["CC(NC(=O)N(C)C1CCN(C)CC1)c1ccc(-c2cccs2)c(Cl)c1F (centres unmarked) [Compound H0582]", "GHSR1a (Homo sapiens, UniProt Q92847)", "nM", 15],
  ["CC(NC(=O)N(C)C1CCN(C)CC1)c1ccc(-c2cnc[nH]2)c2ccccc12 (centres unmarked) [Compound H0599]", "GHSR1a (Homo sapiens, UniProt Q92847)", "nM", 212]
]}

(I) CC(NC(=O)N(C)C1CCN(C)CC1)c1ccc(-c2ccoc2)c2ccccc12 (centres unmarked) [Compound H0598]
(II) CC(NC(=O)N(C)C1CCN(C)CC1)c1ccc(-c2cnc3ccccc3n2)c(Cl)c1Cl (centres unmarked) [Compound H0828]
(III) CC(NC(=O)N(C)[C@@H]1CCN(C)CC1(C)C)c1ccc(-c2cnccn2)c(Cl)c1Cl (some centres unmarked) [Compound H0824]
Ascending by IC50, please. Answer format: list of labels, ordered as asked.
III, I, II

(1) CC(NC(=O)N(C)C1CCN(C)CC1)c1ccc(-c2cncc(N)n2)c(Cl)c1Cl (centres unmarked) [Compound H0780]
(2) C#Cc1cncc(-c2ccc(C(C)NC(=O)N(C)C3CCN(C)CC3)c(Cl)c2Cl)c1 (centres unmarked) [Compound H0710]
(3) CN1CCC(N(C)C(=O)NC(c2ccc(-c3cnccn3)c(Cl)c2Cl)C(F)(F)F)C1 (centres unmarked) [Compound H0871]
(4) CON(C(=O)NC(C)c1ccc(-c2cnccn2)c(Cl)c1Cl)C1CCN(C)CC1 (centres unmarked) [Compound H0743]
(5) CC(=O)Nc1cncc(-c2ccc(C(C)NC(=O)N(C)C3CCN(C)CC3)c(Cl)c2Cl)c1 (centres unmarked) [Compound H0712]
Kindly order the items shown according to IC50, from the highest value down. Answer format: list of labels, ordered as asked.
5, 2, 4, 1, 3

----------
- tested.on: GHSR1a (Homo sapiens, UniProt Q92847)
- assay.text: Calcium FLIPR assay, GHSR-1a agonism
- study.conditions: HEK293/GHSR1a cells
readout: EC50

{"columns": ["compound", "tested.on", "readout", "result"],
 "data": [
  ["CC(NC(=O)N(C)C1CCN(C)CC1)c1ccc(-c2cncc(C3CCCC3)c2)c(Cl)c1Cl (centres unmarked) [Compound H0718]", "GHSR1a (Homo sapiens, UniProt Q92847)", "EC50", "> 30000 nM"],
  ["CC(NC(=O)N(C)C1CCN(C)CC1)c1ccc(-c2cocn2)c(Cl)c1Cl (centres unmarked) [Compound H0569]", "GHSR1a (Homo sapiens, UniProt Q92847)", "EC50", "> 30000 nM"],
  ["CN1CCC(N(O)C(=O)NC(CC2CC2)c2ccc(-c3cnccn3)c(Cl)c2Cl)CC1 (centres unmarked) [Compound H0761]", "GHSR1a (Homo sapiens, UniProt Q92847)", "EC50", "3 nM"],
  ["CC(NC(=O)N(C)C1CCN(C)CC1)c1ccc(-c2cnc(N(C)C)nc2)c(Cl)c1Cl (centres unmarked) [Compound H0804]", "GHSR1a (Homo sapiens, UniProt Q92847)", "EC50", "263 nM"]
]}

What measured EC50 goes with CC(NC(=O)N(C)C1CCN(C)CC1)c1ccc(-c2cncc(C3CC3)c2)c(Cl)c1Cl (centres unmarked) [Compound H0765] ?
137 nM

What measured EC50 goes with CC(NC(=O)N(C)C1CCN(C)CC1)c1ccc(-c2cncc(N3CCCC3)c2)c(Cl)c1Cl (centres unmarked) [Compound H0719] ?
> 30000 nM

What measured EC50 goes with CC#Cc1ccc(C(C)NC(=O)N(C)C2CCN(C)CC2)c(Cl)c1Cl (centres unmarked) [Compound H0832] ?
> 30000 nM

What measured EC50 goes with CN1CC[C@@H](N(C)C(=O)NC(c2ccc(-c3cnccn3)c(Cl)c2Cl)C(F)(F)F)C(C)(C)C1 (some centres unmarked) [Compound H0865] ?
> 30000 nM

----------
- tested.on: UniProt:Q92847
- assay.text: Calcium FLIPR assay, GHSR-1a antagonism (reduction of ghrelin response)
- study.conditions: HEK293/GHSR1a cells, ghrelin 10 nM
pIC50: −log10 of the molar value.
readout: pIC50

See these solved cases before continuing.
{"columns": ["compound", "pIC50"],
 "data": [
  ["C[C@H](NC(=O)N(C)[C@@H]1CCN(C)CC1(C)C)c1ccc(-c2cnccn2)c(Cl)c1Cl [Compound H0890]", 8.80],
  ["CN1CCC(N(C)C(=O)N[C@@H](c2ccc(-c3cnccn3)c(Cl)c2Cl)C(F)(F)F)CC1 [Compound H0899]", 5.80]
]}

(1) CC(NC(=O)N(C)C1CCN(C)CC1)c1ccc(-c2cncc(-c3cncs3)c2)c(Cl)c1Cl (centres unmarked) [Compound H0716]
(2) CC(NC(=O)N(C)C1CCN(C)CC1)c1ccc(-c2ccncc2)c(Cl)c1Cl (centres unmarked) [Compound H0497]
(3) CC(NC(=O)N(C)C1CCN(C)CC1)c1ccc(-c2cccnn2)c(Cl)c1Cl (centres unmarked) [Compound H0729]
Kindly order the items shown according to pIC50, from the highest value down. Answer format: list of labels, ordered as asked.
1, 2, 3
(1: 7.82, 2: 7.62, 3: 7.00)

(A) COC(=O)c1ccc(CN(C(=O)NC(C)c2ccc(-c3cn[nH]c3)c(Cl)c2Cl)C2CCN(C)CC2)cc1 (centres unmarked) [Compound H0537]
(B) CC(NC(=O)N(C)C1CCN(C)CC1)c1ccc(-c2cnccn2)c(Cl)c1F (centres unmarked) [Compound H0856]
Hi, I'm comparing A with B and wondering which one has the bigger number for pIC50. Any idea? Give the label of your selection.
A

----------
Reported inhibition in vivo at 10 mg/kg values for a set of molecules
- Tested on: C57BL/6J mice
- assay.text: Food intake test in mouse (GHSR1a antagonists)
- Assay type: in vivo
- study.conditions: Mus musculus, ip, 2 h, i.p. 10 mg/kg
Quick note: give the figure in %, leave out the unit.

{"columns": ["molecule", "tested.on", "readout", "result.number"],
 "data": [
  ["COc1ncc(-c2ccc(C(C)NC(=O)N(C)C3CCN(C)CC3)c(Cl)c2Cl)cn1 (stereo not drawn)", "C57BL/6J mice", "inhibition in vivo at 10 mg/kg", 48]
]}

What measured inhibition in vivo at 10 mg/kg goes with CC(NC(=O)N(C)C1CCN(C)CC1)c1ccc(-c2ccc(C(N)=O)s2)c(Cl)c1Cl (stereo not drawn) ?
62

What measured inhibition in vivo at 10 mg/kg goes with CC(NC(=O)N(C)C1CCN(C)CC1)c1ccc(-c2ncccn2)c(Cl)c1Cl (stereo not drawn) ?
34

What measured inhibition in vivo at 10 mg/kg goes with CC(NC(=O)N(C)C1CCN(C)CC1)c1ccc(-c2cnccn2)c(Cl)c1Cl (stereo not drawn) ?
41

What measured inhibition in vivo at 10 mg/kg goes with CN1CCC(N(C)C(=O)NC(c2ccc(-c3cncnc3)c(Cl)c2Cl)C(F)(F)F)CC1 (stereo not drawn) ?
61

What measured inhibition in vivo at 10 mg/kg goes with CC(NC(=O)N(C)C1CCN(C)CC1)c1ccc(-c2cncc(N)c2)c(Cl)c1Cl (stereo not drawn) ?
32

----------
- tested.on: GHSR1a (Homo sapiens, UniProt Q92847)
- assay.text: Calcium FLIPR assay, GHSR-1a agonism
- study.conditions: HEK293/GHSR1a cells
- Method: The intracellular calcium assay was carried out in a 384-well format FLIPR™ (Molecular Device) HEK293/GHSR1a cell line. Cells were seeded 24 hr prior to the experiments at an optimal density per well. […] Relative fluorescence was monitored by the FLIPR™ Molecular Device. […] To check for GHSR-1a antagonism the compound and Ghrelin (10 nM) were added to the cells at t=20 sec. and the calcium response was measured for 2 minutes. […]
readout: EC50 (nM)

(I) CC(NC(=O)N(C)C1CCN(C)CC1)c1ccc(-c2ccnnc2)c(Cl)c1Cl (centres unmarked) [Compound H0783]
(II) CCc1ccc(C(C)NC(=O)N(C)C2CCN(C)CC2)c(Cl)c1Cl (centres unmarked) [Compound H0628]
(III) CC(NC(=O)N(C)C1CCN(C)CC1)c1ccc(-c2ccc(C3CC3)nc2)c(Cl)c1Cl (centres unmarked) [Compound H0820]
(IV) CC(=O)/C=C(\Cl)c1ccc(C(C)NC(=O)N(C)C2CCN(C)CC2)c(Cl)c1Cl (centres unmarked) [Compound H0702]
(V) CC(NC(=O)N(C)C1CCN(C)CC1)c1ccc(-c2cccs2)c(Cl)c1F (centres unmarked) [Compound H0582]
Take the compounds listed above and rank them by EC50; the top slot goes to the highest value. Answer format: list of labels, ordered as asked.
IV, II, I, V, III
